Test system: MIP / SW620
Protocol Text: SRB cytotoxicity ratio MIP/SW620 (MDR, P-glycoprotein resistance)
Assay type: cell-based, human
Measurement Setup: IC50 resistant / IC50 sensitive cell line; MDR (pglycoprotein) resistance; 2880 min
Assay Endpoint: MIP/SW620 IC50 ratio
Numbers only.

Worked set:
INSERT INTO assay_data (compound, experimental_system, assay_endpoint, value_measured) VALUES
  ('C[N+]1=C2C=C(NCc3cccc4ccccc34)C(=O)c3[nH]cc(c32)CC1', 'MIP / SW620', 'MIP/SW620 IC50 ratio', 67.8),
  ('CNC1=CC2=[N+](C)CCc3cn(C)c(c32)C1=O', 'MIP / SW620', 'MIP/SW620 IC50 ratio', 65.8),
  ('C[N+]1=C2C=C(N)C(=O)c3c2c(cn3Cc2cccc(Cl)c2)CC1', 'MIP / SW620', 'MIP/SW620 IC50 ratio', 7.0),
  ('C[N+]1=C2C=C(N)C(=O)c3[nH]cc(c32)CC1', 'MIP / SW620', 'MIP/SW620 IC50 ratio', 1.1),
  ('Cn1cc2c3c1C(=O)C(N/C=C/c1ccc(O)cc1)=CC3=NCC2.O=C(O)C(F)(F)F', 'MIP / SW620', 'MIP/SW620 IC50 ratio', 1.1);

Please give MIP/SW620 IC50 ratio for each item listed below.
1. C[N+]1=C2C=C(NCC(O)c3ccccc3)C(=O)c3[nH]cc(c32)CC1 (stereo not drawn)
2. COc1cccc(Cn2cc3c4c2C(=O)C(N)=CC4=[N+](C)CC3)c1
3. CN1CCc2cn(C)c3c2C1=CC(=O)C3=O
4. CNC1=CC2=[N+](C)CCc3c[nH]c(c32)C1=O

[167.0, 8.6, 1.5, 20.3]
